Target: HCV NS3 helicase NS3h_1b(con1) (Hepatitis C virus genotype 1b)
Construct: truncated C-terminally His-tagged NS3 proteins lacking the N-terminal protease, called NS3h; His-tag (C); made in house
Assay: biochemical
Assay type: biochemical, hepatitis C virus genotype 1b(con1)
Settings: DNA-based MBHA, genotype 1b; read-out: DNA Helicase NS3h_1b IC50 (μM) ± SD
Protocol: All oligonucleotides were purchased from Integrated DNA Technologies (IDT, Coralville, Iowa). […] All molecular beacon-based helicase assays (MBHAs) were performed according to known methods (Belon & Frick (2008) supra; Belon & Frick (2009) supra). […] Fluorescence was read before ATP (F0) addition and 30 minutes after ATP was added to 1 mM (F30) using a Tecan Infinite M200 fluorescence microplate reader with excitation and emission wavelengths set to 643 and 670 nm, respectively. […]
Binary label based on IC50 with cut-off 5 µM: below gives TRUE, not below gives FALSE.

Answer whether the molecule Cc1ccc2nc(-c3ccc4nc(-c5ccc(NC(=O)c6cc(C(F)(F)F)ccc6F)cc5)sc4c3)sc2c1S(=O)(=O)O has IC50 strictly less than 5 µM
FALSE

---

molecular target: NS3h_2a(JFH1) (Hepatitis C virus genotype 2a, UniProt Q99IB8); construct: truncated C-terminally His-tagged NS3 proteins lacking the N-terminal protease, called NS3h; His-tag (C); made in house; assay: MBHA, DNA substrate, genotype 2a helicase; assay type: biochemical, hepatitis C virus genotype 2a(JFH1); conditions: genotype 2a (JFH1); read-out: Target Potency MBHA (IC50 avg., μM) 2a (JFH1) (converted)
Sequence (Q99IB8 1196-1661): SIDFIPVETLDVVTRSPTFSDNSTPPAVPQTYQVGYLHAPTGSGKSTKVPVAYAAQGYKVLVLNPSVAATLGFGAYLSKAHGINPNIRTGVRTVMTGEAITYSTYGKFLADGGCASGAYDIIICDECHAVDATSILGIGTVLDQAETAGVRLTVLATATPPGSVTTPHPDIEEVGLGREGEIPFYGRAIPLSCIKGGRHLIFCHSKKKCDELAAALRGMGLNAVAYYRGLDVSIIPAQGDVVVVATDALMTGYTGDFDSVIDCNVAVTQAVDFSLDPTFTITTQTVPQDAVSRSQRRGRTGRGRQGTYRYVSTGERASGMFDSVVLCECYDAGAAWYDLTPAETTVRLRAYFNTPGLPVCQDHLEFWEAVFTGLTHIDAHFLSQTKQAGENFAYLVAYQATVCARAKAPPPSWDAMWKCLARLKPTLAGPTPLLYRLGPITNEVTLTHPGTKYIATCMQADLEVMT
Binary label based on IC50 with cut-off 5 µM: below gives 1, not below gives -1.

COMPOUND	CLASS_ASSIGNMENT
Cc1ccc2nc(-c3ccc4nc(-c5ccc(NC(=O)c6cc(C(F)(F)F)cc(C(F)(F)F)c6)cc5)sc4c3)sc2c1S(=O)(=O)O [Compound 24]	-1
Cc1ccc2nc(-c3ccc4nc(-c5ccc(NC(=O)c6ccc7nc(-c8ccc(NC(=O)OCC9c%10ccccc%10-c%10ccccc%109)cc8)sc7c6)cc5)sc4c3)sc2c1S(=O)(=O)O.N [Compound 36]	1
Cc1ccc(NC(=O)Nc2ccc(-c3nc4ccc(-c5nc6ccc(C)c(S(=O)(=O)O)c6s5)cc4s3)cc2)cc1 [Compound 28]	1
Cc1ccc2nc(-c3ccc4nc(-c5ccc(NC(=O)c6ccc(N)cc6)cc5)sc4c3)sc2c1S(=O)(=O)O [Compound 6]	-1
Cc1ccc2nc(-c3ccc(NC(=O)c4ccc(C(F)(F)F)cc4)cc3)sc2c1S(=O)(=O)O	-1

Shift focus to the following entry.
Answer whether the compound Cc1ccc2nc(-c3ccc4nc(-c5ccc(NC(=O)c6ccc(C(F)(F)F)c(F)c6)cc5)sc4c3)sc2c1S(=O)(=O)O [Compound 23] has IC50 strictly less than 5 µM
-1

---

target: E. coli SSB-Cy5-dT15 complex (Escherichia coli); construct: purchased Promega; experiment: Escherichia coli SSB Cy5-dT15 binding assay (fluorescence polarization); details: disruption of Cy5-dT15-SSB complex; read-out: Cy5-dT15-SSB Binding IC50
Sequence (P0AGE0 2-178, one chain of several): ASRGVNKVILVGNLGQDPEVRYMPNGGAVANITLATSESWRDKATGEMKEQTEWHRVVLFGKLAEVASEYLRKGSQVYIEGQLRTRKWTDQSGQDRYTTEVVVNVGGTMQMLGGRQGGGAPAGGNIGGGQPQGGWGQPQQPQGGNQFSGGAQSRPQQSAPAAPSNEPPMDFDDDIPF
METRIC_NAME: pIC50
pIC50 is a log-scale quantity: -log10 of the concentration expressed in molar.

Observe how each entry below is paired with its result.
SMILES_CODE	TARGET_UNDER_TEST	MEASURED_VALUE
Cc1ccc2nc(-c3ccc(NC(=O)c4ccc(NC(=O)c5ccc(NC(=O)OCC6c7ccccc7-c7ccccc76)cc5)cc4)cc3)sc2c1S(=O)(=O)O.N	E. coli SSB-Cy5-dT15 complex (Escherichia coli)	5.15
Cc1ccc2nc(-c3ccc4nc(-c5ccc(NC(=O)c6cccc7ccccc67)cc5)sc4c3)sc2c1S(=O)(=O)O.N	E. coli SSB-Cy5-dT15 complex (Escherichia coli)	5.05
Cc1ccc2nc(-c3ccc4nc(-c5ccc(NC(=O)c6ccc(CNC(=O)OCC7c8ccccc8-c8ccccc87)cc6)cc5)sc4c3)sc2c1S(=O)(=O)O.N	E. coli SSB-Cy5-dT15 complex (Escherichia coli)	4.24
Cc1ccc2nc(-c3ccc4nc(-c5ccc(NC(=O)c6ccccc6)cc5)sc4c3)sc2c1S(=O)(=O)O	E. coli SSB-Cy5-dT15 complex (Escherichia coli)	5.40
Cc1ccc2nc(-c3ccc4nc(-c5ccc(NC(=O)c6cc(C(F)(F)F)cc(C(F)(F)F)c6)cc5)sc4c3)sc2c1S(=O)(=O)O	E. coli SSB-Cy5-dT15 complex (Escherichia coli)	4.44
Cc1ccc2nc(-c3ccc4nc(-c5ccc(NC(=O)Nc6ccccc6)cc5)sc4c3)sc2c1S(=O)(=O)O.N	E. coli SSB-Cy5-dT15 complex (Escherichia coli)	5.22
CCN(CC)c1ccc(-c2nc3ccc(C)c(S(=O)(=O)O)c3s2)cc1	E. coli SSB-Cy5-dT15 complex (Escherichia coli)	5.15
Cc1ccc2nc(-c3ccc4nc(-c5ccc(NC(=O)Nc6ccc(Cl)cc6)cc5)sc4c3)sc2c1S(=O)(=O)O	E. coli SSB-Cy5-dT15 complex (Escherichia coli)	5.30

# next compound below
Find the measured pIC50 of CCN(CC)c1ccc(-c2nc3ccc(-c4nc5ccc(C)c(S(=O)(=O)O)c5s4)cc3s2)cc1 and report it.
5.70

---

target: HCV NS3 helicase NS3h_1b(con1) (Hepatitis C virus genotype 1b, UniProt Q9WMX2); construct: truncated C-terminally His-tagged NS3 proteins lacking the N-terminal protease, called NS3h; His-tag (C); made in house; assay: MBHA screen of NCI mechanistic set library at 20 μM (percent inhibition, compound interference); type: biochemical; settings: compounds at 20 μM, MBHA with DNA substrate; assay interference calculated with Equation 2
Sequence (Q9WMX2 1192-1657): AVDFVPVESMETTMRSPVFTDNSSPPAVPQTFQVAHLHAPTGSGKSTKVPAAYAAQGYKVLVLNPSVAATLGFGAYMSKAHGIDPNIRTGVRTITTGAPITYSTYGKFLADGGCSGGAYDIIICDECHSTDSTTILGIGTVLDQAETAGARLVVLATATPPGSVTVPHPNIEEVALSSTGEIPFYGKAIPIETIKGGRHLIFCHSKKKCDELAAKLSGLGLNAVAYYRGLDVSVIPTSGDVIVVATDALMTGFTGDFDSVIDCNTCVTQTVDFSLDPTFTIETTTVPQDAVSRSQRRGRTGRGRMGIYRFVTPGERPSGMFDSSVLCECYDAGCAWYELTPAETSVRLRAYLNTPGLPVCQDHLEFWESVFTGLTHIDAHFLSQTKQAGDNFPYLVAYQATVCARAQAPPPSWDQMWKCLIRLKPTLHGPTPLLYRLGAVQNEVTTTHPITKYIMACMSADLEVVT
METRIC_NAME: Int.* (Ratio) (Interference)
Record the value in Ratio, omitting the unit from your answer.

Observe how each entry below is paired with its result.
COMPOUND	MEASURED_VALUE
C=CC(=O)N1C/C(=C\c2ccc([N+](=O)[O-])cc2)C(=O)/C(=C/c2ccc([N+](=O)[O-])cc2)C1	0.94
Clc1cc2nc[nH]c2cc1Cl	1.06
COc1cc(C2c3cc4c(cc3C(O)C3COC(=O)C23)OCO4)cc(OC)c1OC (stereo not shown)	1.07

# next compound below
Param request: Int.* (Ratio) (Interference) | system HCV NS3 helicase NS3h_1b(con1) (Hepatitis C virus genotype 1b, UniProt Q9WMX2) | item Clc1ccccc1C(c1ccccc1)(c1ccccc1)n1ccnc1
1.08

---

Each entry below lists one item and its recorded Int.* (Ratio) (Interference) value.
Target: HCV NS3 helicase NS3h_1b(con1) (Hepatitis C virus genotype 1b, UniProt Q9WMX2)
Construct: truncated C-terminally His-tagged NS3 proteins lacking the N-terminal protease, called NS3h; His-tag (C); made in house
Assay: MBHA screen of NCI mechanistic set library at 20 μM (percent inhibition, compound interference)
Format: biochemical
Details: compounds at 20 μM; assay interference calculated with Equation 2 (fluorescence vs DMSO-only controls before ATP)
Experimental: All molecular beacon-based helicase assays (MBHAs) were performed according to known methods (Belon & Frick (2008) supra; Belon & Frick (2009) supra). […] Fluorescence was read before ATP (F0) addition and 30 minutes after ATP was added to 1 mM (F30) using a Tecan Infinite M200 fluorescence microplate reader with excitation and emission wavelengths set to 643 and 670 nm, respectively. […]
Record the value in Ratio, omitting the unit from your answer.

Observe how each entry below is paired with its result.
MOLECULE	TARGET_UNDER_TEST	Int.* (Ratio) (Interference)
CC[C@](C)(O)C(=O)O[C@H]1C(=O)O[C@@H]2C[C@H]3C(C)=CC(=O)[C@@H](O)[C@]3(C)[C@H]3C4(O)OC[C@]32[C@@H]1[C@@H](C)[C@H]4O	HCV NS3 helicase NS3h_1b(con1) (Hepatitis C virus genotype 1b, UniProt Q9WMX2)	0.98
C=C1C(=O)OC2C1CC1OC2C(C)CCC/C(C)=C\CCC1(C)O (centres unmarked)	HCV NS3 helicase NS3h_1b(con1) (Hepatitis C virus genotype 1b, UniProt Q9WMX2)	1.00
COC(=O)[C@@H]1[C@H](O)[C@H](C)[C@H](O)[C@H](C)/C=C\C=C(/C)C(=O)Nc2c(C)c(OC(C)=O)c3c(c2O)C(=O)C(C)=C2OCOC(=C23)/C(C)=C/[C@@](C)(O)[C@H](O)[C@@H](C)[C@H]1OC(C)=O	HCV NS3 helicase NS3h_1b(con1) (Hepatitis C virus genotype 1b, UniProt Q9WMX2)	1.02
O=C1N[C@@H]2C(=C[C@H](O)[C@@H](O)[C@H]2O)c2cc3c(c(O)c21)OCO3	HCV NS3 helicase NS3h_1b(con1) (Hepatitis C virus genotype 1b, UniProt Q9WMX2)	0.87
CCOC(=O)NC(Nc1ccc(F)cc1)(C(=O)OCC)C(F)(F)F (centres unmarked)	HCV NS3 helicase NS3h_1b(con1) (Hepatitis C virus genotype 1b, UniProt Q9WMX2)	0.91

Find the measured Int.* (Ratio) (Interference) of CCCCCCCCCCCCCCCCCCN(C)C(COC)COP(=O)([O-])OCC[N+](C)(C)C (centres unmarked) and report it.
0.89

Find the measured Int.* (Ratio) (Interference) of CC(=O)OC1C(O)C(C)OC(OC2C(OC(=O)C3CCC4C(C3)OC3(CC(OC(=O)/C=C/c5ccccc5)C(C)CO3)C43CO3)OC(C)C(O)C2OC(C)=O)C1O (centres unmarked) and report it.
1.00

Find the measured Int.* (Ratio) (Interference) of CC1=C/C(=N\OCC(=O)O)CC(c2ccc(C(C)C)cc2)C1 (centres unmarked) and report it.
0.92

Find the measured Int.* (Ratio) (Interference) of COc1ccc(/C=C/c2cc(O)cc(O[C@@H]3O[C@H](CO)[C@@H](O)[C@H](O)[C@H]3O)c2)cc1O and report it.
1.07

Find the measured Int.* (Ratio) (Interference) of COC1=C(N)C(=O)c2nc(C)ccc2C1=O and report it.
1.07

Find the measured Int.* (Ratio) (Interference) of CCS(=O)(=O)O.CN(C)C(=O)c1cccc(COc2ccc(N3C(N)=NC(N)=NC3(C)C)cc2Cl)c1 and report it.
0.98

Find the measured Int.* (Ratio) (Interference) of Nc1ccc2c(c1)CN1C(=O)c3ccccc3C1=N2 and report it.
0.90

Find the measured Int.* (Ratio) (Interference) of CN(C)C[C@H]1CC[C@@H](CN(C)C)C1=O.Cl.Cl and report it.
1.09

Find the measured Int.* (Ratio) (Interference) of O=C1OC(c2ccco2)=N/C1=C\c1ccc(Cl)c(Cl)c1 and report it.
0.99

Data origin, for the record: patent US9464064B2
